# System: Mycobacterium tuberculosis
# TEST: Antimycobacterial activity against Mycobacterium tuberculosis H37Rv ATCC 27294 after 28 days by agar dilution method
# Assay type: functional
# CONDITION_NOTES: H37Rv ATCC 27294, 672 h
MEASUREMENT_KIND: log10 MIC (log10 of the value in µg/mL)
Hello, just confirming the data are log10 of MIC with units of µg/mL.

[
  {
    "SMILES_REPRESENTATION": "Nc1nc(-c2ccc3oc4ccccc4c3c2)cs1",
    "TARGET_OR_TEST_SYSTEM": "Mycobacterium tuberculosis",
    "log10 MIC": 0.19
  }
]

## Input Consider the compound `Cn1c2ccccc2c2cc(-c3csc(N)n3)ccc21` . State its measured log10 MIC.
## Output 1.10

## Input Consider the compound `Cc1ccc(/C=C/C(=O)Nc2nc(-c3ccc4c(c3)c3ccccc3n4C)cs2)cc1` . State its measured log10 MIC.
## Output 1.40

## Input Consider the compound `O=C(/C=C/c1ccc(Br)cc1)Nc1nc(-c2ccc3oc4ccccc4c3c2)cs1` . State its measured log10 MIC.
## Output 1.10

## Input Consider the compound `CC[C@@H](CO)NCCN[C@@H](CC)CO` . State its measured log10 MIC.
## Output 0.50

## Input Consider the compound `O=C(/C=C/c1ccccc1)Nc1nc(-c2ccc3sc4ccccc4c3c2)cs1` . State its measured log10 MIC.
## Output 1.70

====

# Tested on: Mycobacterium tuberculosis
# TEST: Antimycobacterial activity against Mycobacterium tuberculosis H37Rv ATCC 27294 after 28 days by agar dilution method
# Format: functional
# CONDITION_NOTES: H37Rv ATCC 27294, 672 h
Entries and their measured MIC follow.
Reply numerically in µg/mL, unit not repeated.

[
  {
    "COMPOUND": "O=C(/C=C/c1ccc(F)cc1)Nc1nc(-c2ccc3sc4ccccc4c3c2)cs1",
    "MIC (µg/mL)": 0.78
  }
]

## Input Consider the compound `O=C(/C=C/c1ccc(F)cc1)Nc1nc(-c2ccc3oc4ccccc4c3c2)cs1` . State its measured MIC.
## Output 50

====

# Test system: Mycobacterium tuberculosis
# TEST: Antimycobacterial activity against Mycobacterium tuberculosis H37Rv ATCC 27294 after 28 days by agar dilution method
# Assay type: functional
# CONDITION_NOTES: H37Rv ATCC 27294, 672 h
MEASUREMENT_KIND: MIC (mg/L)
Reply numerically in mg/L, unit not repeated.

[
  {
    "SMILES_REPRESENTATION": "O=C(/C=C/c1ccc(Br)cc1)Nc1nc(-c2ccc3sc4ccccc4c3c2)cs1",
    "UNIT_ABBREV": "mg/L",
    "MIC": 6.25
  }
]

## Input Consider the molecule `Cn1c2ccccc2c2cc(-c3csc(NC(=O)/C=C/c4ccc(F)cc4)n3)ccc21` . State its measured MIC.
## Output 50

## Input Consider the molecule `NNC(=O)c1ccncc1` . State its measured MIC.
## Output 0.1

## Input Consider the molecule `CC(C)c1ccc(/C=C/C(=O)Nc2nc(-c3ccc4sc5ccccc5c4c3)cs2)cc1` . State its measured MIC.
## Output 0.78

## Input Consider the molecule `Cn1c2ccccc2c2cc(-c3csc(NC(=O)/C=C/c4ccc(Br)cc4)n3)ccc21` . State its measured MIC.
## Output 0.78

====

# TEST: Growth inhibition of HEK293T cells at 50 ug/ml after 72 hrs by MTT assay
# Format: cell-based, HEK-293T
# CONDITION_NOTES: human, read-out: GI
So basically every entry gets a class from its inhibition at 72 h, 50 ug/ml, ranges being group 1 (below 40%), group 2 (40% to below 50%), group 3 (50% or more)

[
  {
    "SMILES_REPRESENTATION": "O=C(/C=C/c1ccccc1)Nc1nc(-c2ccc3oc4ccccc4c3c2)cs1",
    "QUALITATIVE_LABEL": "group 3"
  },
  {
    "SMILES_REPRESENTATION": "CC(C)c1ccc(/C=C/C(=O)Nc2nc(-c3ccc4oc5ccccc5c4c3)cs2)cc1",
    "QUALITATIVE_LABEL": "group 2"
  },
  {
    "SMILES_REPRESENTATION": "Cn1c2ccccc2c2cc(-c3csc(NC(=O)/C=C/c4ccc(Br)cc4)n3)ccc21",
    "QUALITATIVE_LABEL": "group 1"
  },
  {
    "SMILES_REPRESENTATION": "Cn1c2ccccc2c2cc(-c3csc(N)n3)ccc21",
    "QUALITATIVE_LABEL": "group 1"
  },
  {
    "SMILES_REPRESENTATION": "Nc1nc(-c2ccc3sc4ccccc4c3c2)cs1",
    "QUALITATIVE_LABEL": "group 3"
  },
  {
    "SMILES_REPRESENTATION": "CC(C)c1ccc(/C=C/C(=O)Nc2nc(-c3ccc4c(c3)c3ccccc3n4C)cs2)cc1",
    "QUALITATIVE_LABEL": "group 3"
  },
  {
    "SMILES_REPRESENTATION": "Cc1ccc(/C=C/C(=O)Nc2nc(-c3ccc4c(c3)c3ccccc3n4C)cs2)cc1",
    "QUALITATIVE_LABEL": "group 1"
  },
  {
    "SMILES_REPRESENTATION": "O=C(/C=C/c1ccc(Br)cc1)Nc1nc(-c2ccc3oc4ccccc4c3c2)cs1",
    "QUALITATIVE_LABEL": "group 3"
  },
  {
    "SMILES_REPRESENTATION": "Nc1nc(-c2ccc3oc4ccccc4c3c2)cs1",
    "QUALITATIVE_LABEL": "group 2"
  },
  {
    "SMILES_REPRESENTATION": "Cn1c2ccccc2c2cc(-c3csc(NC(=O)/C=C/c4ccccc4)n3)ccc21",
    "QUALITATIVE_LABEL": "group 1"
  }
]

Note: attention shifts to another entry.
## Input # classify by inhibition at 72 h, 50 ug/ml band: `Cn1c2ccccc2c2cc(-c3csc(NC(=O)/C=C/c4ccc(F)cc4)n3)ccc21`
## Output group 1

====

# Tested on: Mycobacterium tuberculosis
# TEST: Antimycobacterial activity against Mycobacterium tuberculosis H37Rv ATCC 27294 after 28 days by agar dilution method
# Type: functional
# CONDITION_NOTES: H37Rv ATCC 27294, 672 h
MEASUREMENT_KIND: MIC
Param answer (str): number followed by unit.

Before answering, review these 4 worked examples.
[
  {
    "SMILES_REPRESENTATION": "O=C(/C=C/c1ccccc1)Nc1nc(-c2ccc3oc4ccccc4c3c2)cs1",
    "EXPERIMENTAL_RESULT": "50 µg/mL"
  },
  {
    "SMILES_REPRESENTATION": "Cc1ccc(/C=C/C(=O)Nc2nc(-c3ccc4oc5ccccc5c4c3)cs2)cc1",
    "EXPERIMENTAL_RESULT": "50 µg/mL"
  },
  {
    "SMILES_REPRESENTATION": "Cn1c2ccccc2c2cc(-c3csc(NC(=O)/C=C/c4ccccc4)n3)ccc21",
    "EXPERIMENTAL_RESULT": "50 µg/mL"
  },
  {
    "SMILES_REPRESENTATION": "CC(C)c1ccc(/C=C/C(=O)Nc2nc(-c3ccc4oc5ccccc5c4c3)cs2)cc1",
    "EXPERIMENTAL_RESULT": "6.25 µg/mL"
  }
]

## Input Consider the molecule `Nc1nc(-c2ccc3sc4ccccc4c3c2)cs1` . State its measured MIC.
## Output 1.56 µg/mL

====

# Tested on: Mycobacterium tuberculosis
# TEST: Antimycobacterial activity against Mycobacterium tuberculosis H37Rv ATCC 27294 after 28 days by agar dilution method
# Type: functional
# CONDITION_NOTES: H37Rv ATCC 27294, 672 h
MEASUREMENT_KIND: MIC (µg/mL)
Reply numerically in µg/mL, unit not repeated.

[
  {
    "COMPOUND": "Cc1ccc(/C=C/C(=O)Nc2nc(-c3ccc4sc5ccccc5c4c3)cs2)cc1",
    "MEASUREMENT_KIND": "MIC",
    "UNIT_ABBREV": "µg/mL",
    "EXPERIMENTAL_RESULT": 50
  },
  {
    "COMPOUND": "NC(=O)c1cnccn1 [PYRAZINAMIDE]",
    "MEASUREMENT_KIND": "MIC",
    "UNIT_ABBREV": "µg/mL",
    "EXPERIMENTAL_RESULT": 50
  }
]

## Input Consider the compound `CC(C)c1ccc(/C=C/C(=O)Nc2nc(-c3ccc4c(c3)c3ccccc3n4C)cs2)cc1` . State its measured MIC.
## Output 50
